Let's look at some compounds and their measured growth inhibition.
# procedureDetails: S. cerevisiae growth inhibition in restrictive medium, OD615, pilot screen, restrictive growth control, yeast lifespan reduction project (AID 706);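 further: modified DeaD lifespan yeast strain shifted to restrictive glucose medium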
# assayContext: OD615, 48 h, at 10 µM, hits give high values
The reply should be a number in %, with the unit left off.

Please review the following examples before continuing.
{"compound": "Cc1cc(C)c2c(=O)n(CC(=O)NCCCN3CCOCC3)sc2n1", "unit": "%", "assayValue": 0.575}
{"compound": "Cc1nc2ccccc2c2oc(C(=O)NCC3COc4ccccc4O3)cc12 (stereo unspecified)", "unit": "%", "assayValue": -3.1}
{"compound": "CC1CC(NC(=O)c2cnc3n(c2=O)CCS3)CC(C)(C)C1 (stereo unspecified)", "unit": "%", "assayValue": -8.4}
{"compound": "O=C(C1CCCN1S(=O)(=O)c1cccc2cccnc12)N1CCn2c1nc1ccccc12 (stereo unspecified)", "unit": "%", "assayValue": 4.54}
{"compound": "CC1CN(Cc2nc3c(c(=O)n(C)c(=O)n3C)n2Cc2ccccc2)CC(C)O1 (stereo unspecified)", "unit": "%", "assayValue": 3.58}
{"compound": "CCOC(=O)c1c(C)n(OCc2ccccc2)c2ccc3c(no[n+]3[O-])c12", "unit": "%", "assayValue": -11.1}
{"compound": "O=C(O)c1cccc2c1C(=O)N(C1CCCCC1)C2", "unit": "%", "assayValue": -5.79}
{"compound": "CC(C)c1ncc(C(O)c2cccc3ccccc23)n1C (stereo unspecified)", "unit": "%", "assayValue": -7.64}

The recorded growth inhibition for entry CCOC(=O)C1=C(C)N(C)C(=O)NC1c1ccccc1OC (stereo unspecified) equals -3.44

The recorded growth inhibition for entry COC(=O)Nc1c(C(=O)OC)cc(OC)c(OC)c1OC equals -6.57

The recorded growth inhibition for entry O=C(NCC1COc2ccccc2O1)C1CCCN(S(=O)(=O)c2cccc3cccnc23)C1 (stereo unspecified) equals -19.5

###

# procedureDetails: viability of PTEN-null HCT116 cells – cell-based, HCT116 clonal line, CellTiter-Glo, pilot screen (AID 824);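 further: 0% = 20 µM Hyamine control and 100% = vehicle cell control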
# assayContext: HCT116 PTEN-deleted viability, 60 h, at 10 µM, hits give low values
Results filed as inconclusive are left out.
metricName: viability (%)
The reply should be a number in %, with the unit left off.

{"compound": "Cc1nnc(N(Cc2ccco2)C(=O)c2cccc(C#N)c2)s1", "unit": "%", "viability": 98.5}

The recorded viability for entry Cn1c(Cn2c(=O)sc3ccccc32)nnc1SCC(=O)Nc1ccc(F)cc1 equals 97.8

The recorded viability for entry Cc1ccc(-c2noc(CN3C(C)CCCC3C)n2)cc1 (configuration not stated) equals 95.9

###

# procedureDetails: viability of HCT116 without oncogenic beta-catenin – human colon tumor cells, pilot screen (AID 823);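 further: 0% = wells killed by 20 µM Hyamine and 100% = untreated DMSO cell wells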
# assayContext: HCT116 beta-catenin knockout viability, CellTiter-Glo, 60 h; at 10 µM; hits give low values
Inconclusive results are not listed.
metricName: viability (%)
The reply should be a number in %, with the unit left off.

{"compound": "Oc1ccccc1-c1nnc(COc2ccc(Cl)cc2Cl)o1", "unit": "%", "viability": 92.3}
{"compound": "CCn1cc(C(=O)NCC2CCCO2)c(=O)c2cc(S(=O)(=O)N(C)C)ccc21 (stereo unspecified)", "unit": "%", "viability": 101}

The recorded viability for entry Cc1ccc(-c2noc(COc3ccccc3C)n2)cc1 equals 93

The recorded viability for entry O=C(O)C1CCCN(S(=O)(=O)c2ccc(Cl)s2)C1 (stereo unspecified) equals 100

The recorded viability for entry O=C(CCCn1c(=O)c2sccc2n(Cc2cc(=O)n3ccccc3n2)c1=O)NCc1ccco1 equals 91.3

The recorded viability for entry COc1ccc(-c2nn(-c3ccccc3)cc2/C=N/n2cnnc2)cc1OC equals 88

The recorded viability for entry O=C(c1ccc2c(c1)OCCO2)N1CCCCC1 equals 97.2

The recorded viability for entry COc1ccc(NC(=O)c2cnc3n(c2=O)CCS3)cc1OC equals 109

The recorded viability for entry CC(=N)C1=C(O)CC(C)(C)CC1=O equals 94.9

The recorded viability for entry C=CCN1C(=O)c2oc3ccccc3c(=O)c2C1c1ccc(O)c(OC)c1 (stereo unspecified) equals 101

The recorded viability for entry CCn1c(-c2cc(Br)ccc2O)n[nH]c1=S equals 98.9

###

# testedTarget: Receptor tyrosine-protein kinase erbB-2 (Homo sapiens)
# procedureDetails: Her2 expression decrease, cell viability multiplex – SKBR3 breast tumor cells, AlphaScreen, ATP viability, primary screen (AID 461);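 further: lower value means less Her2 protein in the cells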
# assayContext: 18-24 h, at 10 µM, hits give low values
metricName: Her2 level (%)
The reply should be a number in %, with the unit left off.

{"molecule": "Cc1cc(NC(=O)CS(=O)(=O)c2cn(Cc3cccc(F)c3)c3ccccc23)no1", "unit": "%", "Her2 level": 75.5}
{"molecule": "O=C(Cn1cc2c(n1)CCCCC2)N1CCc2ccccc21", "unit": "%", "Her2 level": 95.5}
{"molecule": "COc1ccc(NC(=O)CSc2nc3c(c(=O)n2-c2ccc(F)cc2)SCC3)cc1", "unit": "%", "Her2 level": 102}
{"molecule": "C=CCn1c(SC(C)C(=O)NC2(C#N)CCCCC2)nnc1-c1ccc(OC)cc1 (stereo unspecified)", "unit": "%", "Her2 level": 73.5}

Here COc1cc2c(cc1OC)CN(C(=O)CSc1nc3[nH]ncc3c(=O)n1-c1ccccc1)CC2 was tested on Receptor tyrosine-protein kinase erbB-2 (Homo sapiens), and its Her2 level came to 97

Here N#CC(C(=O)Nc1ccccc1)=C1CCCCC1 was tested on Receptor tyrosine-protein kinase erbB-2 (Homo sapiens), and its Her2 level came to 89.5

Here Cc1ccc(N=Cc2ccc(O)cc2O)cc1F was tested on Receptor tyrosine-protein kinase erbB-2 (Homo sapiens), and its Her2 level came to 80

Here C=C(C)Cn1c(-c2ccccc2)nc2ccccc21 was tested on Receptor tyrosine-protein kinase erbB-2 (Homo sapiens), and its Her2 level came to 102

Here N#Cc1nc(COc2ccccc2Cl)oc1N1CCCCCC1 was tested on Receptor tyrosine-protein kinase erbB-2 (Homo sapiens), and its Her2 level came to 104

Here Cn1c(SCC(=O)c2cc3ccccc3o2)nnc1-c1ccccc1 was tested on Receptor tyrosine-protein kinase erbB-2 (Homo sapiens), and its Her2 level came to 97.5

Here O=C(Cn1nc(Cc2ccncc2)c2ccccc2c1=O)N1CCc2ccccc2C1 was tested on Receptor tyrosine-protein kinase erbB-2 (Homo sapiens), and its Her2 level came to 100

###

# procedureDetails: viability of PTEN-null HCT116 cells – cell-based, HCT116 clonal line, CellTiter-Glo, pilot screen (AID 824);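 further: 0% = 20 µM Hyamine control and 100% = vehicle cell control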
# assayContext: HCT116 PTEN-deleted viability, 60 h, at 10 µM, hits give low values
Records with an inconclusive call do not appear.
Let's look at some compounds and their measured viability.
The reply should be a number in %, with the unit left off.

{"compound": "CCCC(=O)NCCc1nc2ccccc2n1CCC", "unit": "%", "viability": 101}
{"compound": "CCSc1nnc(N2C(=O)CC(c3ccsc3)C3=C2CC(C)(C)CC3=O)s1 (stereo not drawn)", "unit": "%", "viability": 94.9}
{"compound": "O=C(CSc1nnc(Cn2c(=O)sc3ccccc32)n1-c1ccccc1)Nc1nccs1", "unit": "%", "viability": 90}
{"compound": "Cc1c(C)n(C(=O)CSc2nncn2C)c2ccccc12", "unit": "%", "viability": 98.1}
{"compound": "NC(=O)CSc1cn(CCNC(=O)c2cccs2)c2ccccc12", "unit": "%", "viability": 94.8}

The recorded viability for entry CCN1CCN(C(=O)C2CCN(C(=O)c3cc4sccc4n3CC)CC2)CC1 equals 95.5

The recorded viability for entry COc1ccc(OC)c2sc(NC(=O)C3COc4ccccc4O3)nc12 (stereo not drawn) equals 95.6

The recorded viability for entry Cc1c(NC(=O)c2ccc(Br)o2)c(=O)n(-c2ccccc2)n1C equals 103

The recorded viability for entry COc1ccc(C(=O)CSc2nnc(-c3ccccc3)o2)cc1 equals 88.8

The recorded viability for entry Cc1cc(NC(=O)CSc2c3c(nc4ccccc24)CCC3)no1 equals 74.6

The recorded viability for entry CC12CCC(C(=O)N3CCN(C(=O)C45CCC(C)(C(=O)O4)C5(C)C)CC3)(OC1=O)C2(C)C equals 94.1

###

# procedureDetails: viability of HCT116 without oncogenic beta-catenin – human colon tumor cells, pilot screen (AID 823);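 further: 0% = wells killed by 20 µM Hyamine and 100% = untreated DMSO cell wells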
# assayContext: HCT116 beta-catenin knockout viability, CellTiter-Glo, 60 h; at 10 µM; hits give low values
Inconclusive results are not listed.
Label key: fulfilled means viability under 90%; not fulfilled means viability of 90% or more.

input: Record Cc1ccccc1-n1c(Cn2c(=O)sc3ccccc32)nnc1SCC(N)=O : is its viability strictly below 90%?
output: not fulfilled

input: Record COc1ccc(OCCCC(=O)Nc2nncs2)cc1 : is its viability strictly below 90%?
output: not fulfilled

input: Record O=P(O)(CCc1ccccc1)CN1CCCCC1 : is its viability strictly below 90%?
output: not fulfilled

input: Record COc1ccccc1-c1nnc(SCC(=O)NC2CCCCC2)o1 : is its viability strictly below 90%?
output: not fulfilled

input: Record CC1CCc2nn(CC(=O)Nc3ccc(F)cc3F)cc2C1 (stereo not drawn) : is its viability strictly below 90%?
output: not fulfilled

input: Record O=C1c2ccccc2C(Nc2ccc(-c3nc4ccccc4[nH]3)cc2)N1Cc1ccco1 (stereo not drawn) : is its viability strictly below 90%?
output: fulfilled

input: Record S=c1[nH]nc(-c2ccccc2)n1C1C=CCCC1 (stereo not drawn) : is its viability strictly below 90%?
output: not fulfilled

input: Record Cc1nn(C(=O)c2ccc3c(c2)OCO3)c(N)c1-c1ccccc1 : is its viability strictly below 90%?
output: not fulfilled

input: Record CC12CCC(C(=O)Nc3ccc4c(c3)OCCO4)(OC1=O)C2(C)C (stereo not drawn) : is its viability strictly below 90%?
output: not fulfilled

input: Record COc1ccccc1CNC(=O)c1cnc2ccccn2c1=O : is its viability strictly below 90%?
output: not fulfilled

input: Record CCCSc1nnc(N2C(=O)CC(c3ccsc3)C3=C2CCCC3=O)s1 (stereo not drawn) : is its viability strictly below 90%?
output: not fulfilled

input: Record Cc1cc(C)nc(SCc2csc(N)n2)n1 : is its viability strictly below 90%?
output: not fulfilled

input: Record CC12CCC(C(=O)N3CCN(C(=O)C45CCC(C)(C(=O)O4)C5(C)C)CC3)(OC1=O)C2(C)C : is its viability strictly below 90%?
output: not fulfilled

input: Record COc1ccc(CNC(=O)CS(=O)Cc2nc(-c3ccc(C)cc3)oc2C)cc1 (stereo not drawn) : is its viability strictly below 90%?
output: fulfilled

input: Record COc1ccc(OC)c(C2=NOC(C(=O)Nc3c(C)n(C)n(-c4ccccc4)c3=O)C2)c1 (stereo not drawn) : is its viability strictly below 90%?
output: not fulfilled

input: Record COC(=O)c1cc(=O)n(Cc2ccc3c(c2)OCO3)c(=Nc2ccccc2)s1 : is its viability strictly below 90%?
output: fulfilled
